- assay text: Pharmacokinetics in rat after intravenous administration
- Format: in vivo
- details: plasma, male rats, intravenous bolus 0.5 mg/kg, read-out: VSS
molecules and their reported Vd
recorded endpoint: Vd

molecule	value reported
CCc1c2c(nc3ccccc13)-c1cc3c(c(=O)n1C2)COC(=O)[C@@]3(CC)OC(=O)[C@@H](NC(=O)[C@@H]1CCCN1C(=O)[C@H](CC(=O)O)NC(=O)CCOCCOCCOCCNC(=O)NCCCC[C@H](NC(=O)N[C@@H](CCC(=O)O)C(=O)O)C(=O)O)C(C)C [Compound 5]	0.1 to 0.3 L/kg
CCCNC(=O)Nc1cccc(S(=O)(=O)Nc2cccc([C@@H](CC(=O)O)NC(=O)Nc3ccc(NC(=O)NCCOCCOCCOCCC(=O)NCCCC[C@H](NC(=O)CCOCCOCCOCCNC(=O)Nc4ccc(NC(=O)N[C@H](CC(=O)O)c5cccc(NS(=O)(=O)c6cccc(NC(=O)NCCC)c6)c5)cc4)C(=O)NCCOCCOCCOCCC(=O)N[C@@H](CC(N)=O)C(=O)N4CCC[C@H]4C(=O)N[C@H](C(=O)NCCCN(C(=O)CO)[C@@H](c4cc(-c5cc(F)ccc5F)cn4Cc4ccccc4)C(C)(C)C)C(C)C)cc3)c2)c1 [Compound 18]	0.01 to 0.1 L/kg
